Origin of measurements: paper PMC6072501

protocolDetails: Plasma binding by equilibrium dialysis (Cyprotex Ltd)
Format: in vitro ADME
conditionSet: neat human plasma, 5 μM peptide in PBS pH 7.5 with 0.5% DMSO, total volume 0.15 ml, 37 °C, mean
*1 amine or outer side, *2 acyl side, *3 side chain or, on linkers, in order; H or OH if unused. Where a SMILES comes first, the peptide text is derived from it. [ ]: non-standard residue; d: D form. X1 = C=CC(C)(C)n1cc(C[C@@H](N[*:1])C(=O)[*:2])c2ccccc21; dNMeF = CN[C@H](Cc1ccccc1)C(=O)O
endpoint: fraction unbound at 5 µM
Keep it simple and answer with nothing but the number.

Task item: I'd like to know its fraction unbound at 5 µM. The compound in question is C=CC(C)(C)n1cc(C[C@@H](NC(=O)[C@H](Cc2ccccc2)NC(=O)[C@@H](Cc2c[nH]c3ccccc23)NC(=O)[C@@H](Cc2ccccc2)NC)C(=O)N[C@@H](CC(C)C)C(N)=O)c2ccccc21 [peptide 2] (H-[dNMeF][dW]F[X1]L-NH2)
Reply: 0.728
